Examples of molecules with documented pKa follow.
- assayMethodText: Fluorescence intensity pH profile (apparent pKa)
- Format: physicochemical
- recordedConditions: 0.1 M phosphate buffer, absence of sugar; 0.1 M phosphate buffer; read-out: apparent pKa assigned to the boronic acid moiety

{"structureAsSmiles": "OB(O)c1cc2ccccc2s1", "pKa": 7}
{"structureAsSmiles": "O=C(O)c1cc(-c2ccc(B(O)O)cc2)nc2ccccc12", "pKa": 7.9}

====

- assayMethodText: Fluorescence intensity pH profile (apparent pKa)
- Type: physicochemical
- recordedConditions: 0.1 M aqueous phosphate buffer with 50 mM glucose, presence of glucose; intensity at 335 nm; read-out: first apparent pKa (aniline group)

{"molecule": "CN(C)c1cccc2c(B(O)O)cccc12 [Compound 7]", "pKa": 5.1}

====

- assayMethodText: Fluorescence intensity pH profile (apparent pKa)
- Format: physicochemical
- recordedConditions: 0.1 M aqueous phosphate buffer, compound alone; intensity at 335 nm; read-out: first apparent pKa (aniline group)
measurementType: pKa

{"structureAsSmiles": "CN(C)c1cccc2c(B(O)O)cccc12", "measurementType": "pKa", "numericResult": 5.1}

====

- assayMethodText: 11B NMR at different pH (pKa assignment)
- Format: physicochemical
- recordedConditions: absence of sugar; 11B NMR in deuterated methanol-water (1:1); read-out: second pKa corresponding to boronic acid ionization
measurementType: pKa

{"compound": "OB(O)c1cccc2ncccc12 [Compound 3]", "result": "7 to 12"}
